Molecular target: T1, human 5T4 oncofoetal antigen (human, UniProt Q13641 32-420)
T1 construct: whole, on cells; also called hu 5T4; human 5T4 antigen
T1 sequence (looked up): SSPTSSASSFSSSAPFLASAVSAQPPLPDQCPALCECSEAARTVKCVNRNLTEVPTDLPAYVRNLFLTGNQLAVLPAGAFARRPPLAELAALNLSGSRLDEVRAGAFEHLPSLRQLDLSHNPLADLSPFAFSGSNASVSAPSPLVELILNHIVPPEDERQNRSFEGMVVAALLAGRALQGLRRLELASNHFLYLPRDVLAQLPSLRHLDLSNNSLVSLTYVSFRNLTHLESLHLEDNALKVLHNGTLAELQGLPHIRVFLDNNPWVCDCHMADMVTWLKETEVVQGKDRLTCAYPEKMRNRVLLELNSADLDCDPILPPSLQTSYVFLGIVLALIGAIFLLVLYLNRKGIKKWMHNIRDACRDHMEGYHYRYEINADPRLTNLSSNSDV
Test: flow cytometry, CHOZN cells expressing hu 5T4

binder	EC50
humanized anti-5T4 antibody 789d with HC-41C mutation (antibody, V domains shown) VH: QSVEESGGGLVQPGGSLRLSCAASGFSLSSYWMSWVRQACGKGLEWIGIIAGRGSTYYASWAKGRFTISRDNSKNTLYLQMNSLRAEDTAVYYCARVSSIYYTFNLWGQGTLVTVSS VL: AQVLTQSPSSLSASVGDRVTITCQSSQSVYSNNELSWYQQKPGKAPKLLIYYASTLASGVPSRFSGSGSGTDFTLTISSLQPEDFATYYCQGSYYSGSGWYYAFGGGTKVEIKR	0.12 µg/mL
humanized anti-5T4 antibody 825c with HC-41C mutation (antibody, human IgG1, kappa, V domains shown) VH: EVQLEESGGGLVKPGGSLRLSCAASGIDLSSYGMGWVRQACGKGLEWVSIISRNSVTYYATWAKGRFTISRDNSKNTLYLQMNSLRAEDTAVYYCARRATYSGALGYFDIWGRGTLVTVSS VL: GYDMTQSPSSVSASVGDRVTITCQASENIYSTLAWYQQKPGKAPKLLIYDAFDLASGVPSRFKGSGSGTEYTLTISSLQPEDFATYYCQQGYSGTNVDNAFGGGTKVEIKR	0.21 µg/mL
humanized anti-5T4 antibody 833d with HC-41C mutation (antibody, human IgG1, kappa, V domains shown) VH: QSLEESGGGLVQPGGSLRLSCAASGIDLSHYVVGWVRQACGKGLEWIGIIYGSGRTYYANWAKGRFTISRHNSKNTLYLQMNSLRAEDTAVYYCARDASVSVYYWGYFDLWGQGTLVTVSS VL: DIQMTQSPSSLSASVGDRVTITCQASQSIGSELAWYQQKPGQAPKLLIYRASTLESGVPSRFSGSGSGTEFTFTISSLQPEDLATYYCQQGYTYSEIDNAFGQGTKLEIKR	0.18 µg/mL

Where do the numbers come from? From patent US20210317231A1.
